read-out: Interleukin-8 (IL8), CXCL8 (gene 3576); assay: BSK_SAg_IL8: BioMAP Diversity Plus: SAg Assay for Interleukin-8 (IL8) Biomarker Activity (AID 2283094); settings: primary human HUVEC with PBMC; actives raise or lower the signal
Calls of active or inactive are those of the source. The calls were made as follows: active = hit-call score of the fitted dose curve at least 0.9, where 1 is the maximum; inactive = score below 0.9.
Possible outcomes: active, inactive

INSERT INTO measurements (linenotation, answerlabel) VALUES
  ('O[Si](c1ccccc1)(c1ccccc1)c1ccccc1', 'active'),
  ('NC(=O)C(F)(F)C(F)(F)C(F)(F)C(F)(F)F', 'inactive'),
  ('OCC(F)(F)C(F)(F)C(F)(F)C(F)F', 'inactive'),
  ('CC(=O)Nc1ccc(N=Nc2cc(C)ccc2O)cc1', 'inactive'),
  ('FC(F)(F)C(F)(F)C(F)(F)C(F)(F)C(F)(F)CCI', 'inactive'),
  ('CCCCCCCCC(F)(F)C(F)(F)C(F)(F)C(F)(F)C(F)(F)C(F)(F)F', 'inactive'),
  ('CCCCNc1ccccc1', 'inactive'),
  ('CCc1c(Br)c(Br)c(Br)c(Br)c1Br', 'inactive'),
  ('FC(F)(F)C(F)(F)C(F)(F)C(F)(F)C(F)(F)C(F)(F)C(F)(F)C(F)(F)F', 'inactive'),
  ('FC(F)(F)C(F)(F)C(F)(F)C(F)(F)C(F)(F)C(F)(F)C(F)(F)C(F)(F)CCS', 'inactive'),
  ('Oc1ccc(Nc2ccccc2)cc1', 'inactive'),
  ('C#C[C@]1(O)CC[C@H]2[C@@H]3CCc4cc(OC)ccc4[C@H]3CC[C@@]21C', 'inactive');

* * *

assay: CCTE_Shafer_MEA_dev_active_electrodes_number: CCTE's Neural Network Formation Assay for Number of Active Electrodes, Shafer Lab (AID 2284040)
Results filed as inconclusive are left out. Calls of active or inactive are those of the source. The calls were made as follows: active = hit-call score of the fitted dose curve at least 0.9, where 1 is the maximum; inconclusive = response in the unintended direction; inactive = score below 0.9.
Outcomes: Y for active, N for inactive

INSERT INTO measurements (linenotation, answerlabel) VALUES
  ('FC(F)(F)C(F)(F)CNCC(F)(F)C(F)(F)F', 'N'),
  ('OCC(F)(F)C(F)(F)C(F)(F)C(F)F', 'N'),
  ('O=C(O)C=C(C(F)(F)F)C(F)(F)F', 'N'),
  ('O=S(=O)(OCCOC(F)(F)F)C(F)(F)F', 'N'),
  ('O=C(O)C(F)(F)C(F)(F)C(F)F', 'N'),
  ('O=C(O)C(F)(F)C(F)(F)C(F)(F)F', 'N'),
  ('FC(F)(F)C(F)(F)C(F)(F)C(F)(F)C(F)(F)CCI', 'Y');

* * *

read-out: Human Leukocyte Antigen - DR isotype (HLADR), HLA-DRA (gene 3122); experiment: BSK_3C_HLADR: BioMAP Diversity Plus: 3C Assay for Human Leukocyte Antigen - DR isotype (HLADR) Biomarker Activity (AID 2283019); details: primary human endothelial cells (HUVEC); actives raise or lower the signal
Activity calls are given as the source filed them. Rule for the calls: active = hit-call score of the fitted dose curve at least 0.9, where 1 is the maximum; inactive = score below 0.9.
experimentalEndpoint: AC50

INSERT INTO results (molecule, experimentalendpoint, value) VALUES
  ('FC(F)(F)C(F)(F)CNCC(F)(F)C(F)(F)F', 'AC50', 'inactive'),
  ('FC(F)(F)C(F)(F)C(F)(F)C(F)(F)C(F)(F)C(F)(F)C(F)(F)C(F)(F)F', 'AC50', 'inactive'),
  ('O=C(O)C(F)(OC(F)(F)C(F)(OC(F)(F)C(F)(OC(F)(F)C(F)(F)C(F)(F)F)C(F)(F)F)C(F)(F)F)C(F)(F)F (centres undefined)', 'AC50', 'inactive'),
  ('OCC(F)(F)C(F)(F)C(F)(F)C(F)(F)C(F)(F)C(F)(F)F', 'AC50', 'inactive'),
  ('FC(F)(F)C(F)(F)C(F)(F)CI', 'AC50', 'inactive'),
  ('O[Si](c1ccccc1)(c1ccccc1)c1ccccc1', 'AC50', '30.6 µM (active)'),
  ('Nc1ccc([N+](=O)[O-])cc1O', 'AC50', 'inactive'),
  ('Oc1ccc(Nc2ccccc2)cc1', 'AC50', '20 µM (active)'),
  ('O=C(O)C(F)(F)C(F)(F)C(F)(F)C(F)(F)C(F)(F)C(F)(F)C(F)(F)C(F)(F)C(F)(F)C(F)(F)C(F)(F)C(F)(F)C(F)(F)F', 'AC50', 'inactive');

Where do the numbers come from? From PubChem BioAssay (EPA / NIEHS).
